The compounds listed here are annotated with their TGI.
Tested on: HL-60(TB) leukemia
ASSAY_DETAILS: NCI tumour cell line growth inhibition, 48 h

COMPOUND: CCN(CC)CCNc1ccc([N+](=O)[O-])c2sc3cc(Cl)ccc3c(=O)c12
TGI: > 100 µM

Lookup: Record request: TGI value, item COc1ccc(/C=C\c2cc(OC)c(OC)c(OC)c2)c(NS(=O)(=O)c2ccc(C(C)(C)C)cc2)c1O
Found: 2.34 µM

Lookup: Record request: TGI value, item CC(C)=CCc1c2c(c(O)c3c(=O)c4c(oc13)-c1ccc(O)cc1OC4C=C(C)C)C=CC(C)(C)O2 (stereo not drawn)
Found: 31.7 µM
